Would you kindly list log10 of IC50 for each of these molecules?
target: Mu-type opioid receptor (Mus musculus); experiment: Displacement of [125I]-DAMGO from mouse Flag-tagged mu-opioid receptor expressed in HEK293 cell membranes after 60 mins by gamma counting
Sequence (P42866 whole entry): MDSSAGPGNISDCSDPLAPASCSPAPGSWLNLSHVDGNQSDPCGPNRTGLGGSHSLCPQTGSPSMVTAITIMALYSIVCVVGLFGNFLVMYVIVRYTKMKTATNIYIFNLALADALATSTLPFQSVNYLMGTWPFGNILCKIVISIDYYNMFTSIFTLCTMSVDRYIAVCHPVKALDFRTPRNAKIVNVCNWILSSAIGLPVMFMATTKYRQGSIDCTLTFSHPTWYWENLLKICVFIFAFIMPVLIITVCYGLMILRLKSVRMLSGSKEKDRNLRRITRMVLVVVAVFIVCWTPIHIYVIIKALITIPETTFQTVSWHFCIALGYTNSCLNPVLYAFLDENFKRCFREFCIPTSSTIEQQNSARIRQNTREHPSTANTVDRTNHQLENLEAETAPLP
Non-standard residues stand in square brackets, D forms with d. Residues, ends and D or L forms follow the SMILES beside them. Phe(3-Ph) = N[C@@H](Cc1cccc(-c2ccccc2)c1)C(=O)O; Bip = N[C@@H](Cc1ccc(-c2ccccc2)cc1)C(=O)O; Dmt = Cc1cc(O)cc(C)c1C[C@H](N)C(=O)O
Please note: log10 values; quantity IC50; unit pM.

Record log10 of IC50 for all entries; do not skip any.
1. CC(C)[C@H](NC(=O)[C@H](CCC(=O)O)NC(=O)[C@H](Cc1ccccc1)NC(=O)[C@@H](C)NC(=O)[C@@H](N)Cc1ccc(O)cc1)C(=O)N[C@H](C(=O)NCC(=O)O)C(C)C
2. Cc1cc(O)cc(C)c1C[C@H](N)C(=O)N[C@H](CCCNC(=N)N)C(=O)N[C@@H](Cc1ccc(-c2ccccc2)cc1)C(=O)NCC(N)=O (H-[Dmt][dR][Bip]G-NH2)
3. Cc1cc(O)cc(C)c1C[C@H](N)C(=O)N[C@H](CCCNC(=N)N)C(=O)N[C@@H](Cc1cccc(-c2ccccc2)c1)C(=O)NCC(N)=O (H-[Dmt][dR][Phe(3-Ph)]G-NH2)

Output:
1. 5.80
2. 3.85
3. 2.93

###

target: Mu-type opioid receptor (Cavia porcellus); assay: Agonist activity at mu-opioid receptor in guinea pig ileum assessed as inhibition of electrically induced contractions
Sequence (P97266 whole entry): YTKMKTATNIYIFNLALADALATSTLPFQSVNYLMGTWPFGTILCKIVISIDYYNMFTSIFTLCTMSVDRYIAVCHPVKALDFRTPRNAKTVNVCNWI
Non-standard residues stand in square brackets, D forms with d. Residues, ends and D or L forms follow the SMILES beside them. Phe(3-Ph) = N[C@@H](Cc1cccc(-c2ccccc2)c1)C(=O)O; Phe(2-Ph) = N[C@@H](Cc1ccccc1-c1ccccc1)C(=O)O; Dmt = Cc1cc(O)cc(C)c1C[C@H](N)C(=O)O
observation-type: pIC50
One number for each entry, as −log10 of the molar value.

C=Cc1ccccc1C[C@H](NC(=O)[C@@H](CCCNC(=N)N)NC(=O)[C@@H](N)Cc1c(C)cc(O)cc1C)C(=O)NCC(N)=O = 9.41
C=Cc1ccccc1C[C@H](NC(=O)[C@@H](C)NC(=O)[C@@H](N)Cc1c(C)cc(O)cc1C)C(=O)NCC(N)=O = 8.93
C[C@@H](NC(=O)[C@@H](N)Cc1ccc(O)cc1)C(=O)NCC(=O)N(C)[C@@H](Cc1ccccc1)C(=O)NCCO [DAMGO] = 7.55
Cc1cc(O)cc(C)c1C[C@H](N)C(=O)N[C@H](CCCNC(=N)N)C(=O)N[C@@H](Cc1cccc(-c2ccsc2)c1)C(=O)NCC(N)=O = 7.52
Cc1cc(O)cc(C)c1C[C@H](N)C(=O)N[C@H](CCCNC(=N)N)C(=O)N[C@@H](Cc1cccc(-c2ccccc2)c1)C(=O)NCC(N)=O (H-[Dmt][dR][Phe(3-Ph)]G-NH2) = 7.21
Cc1cc(O)cc(C)c1C[C@H](N)C(=O)N[C@H](CCCNC(=N)N)C(=O)N[C@@H](Cc1ccccc1-c1ccsc1)C(=O)NCC(N)=O = 8.81
C=Cc1ccc(C[C@H](NC(=O)[C@@H](CCCNC(=N)N)NC(=O)[C@@H](N)Cc2c(C)cc(O)cc2C)C(=O)NCC(N)=O)cc1 = 7.62
C=Cc1cccc(C[C@H](NC(=O)[C@@H](CCCNC(=N)N)NC(=O)[C@@H](N)Cc2c(C)cc(O)cc2C)C(=O)NCC(N)=O)c1 = 8.84
Cc1cc(O)cc(C)c1C[C@H](N)C(=O)N[C@H](C)C(=O)N[C@@H](Cc1ccccc1-c1ccsc1)C(=O)NCC(N)=O = 8.90
Cc1cc(O)cc(C)c1C[C@H](N)C(=O)N[C@H](C)C(=O)N[C@@H](Cc1ccccc1-c1ccccc1)C(=O)NCC(N)=O (H-[Dmt][dA][Phe(2-Ph)]G-NH2) = 8.80

Record pIC50 for all entries; do not skip any.
1. Cc1cc(O)cc(C)c1C[C@H](N)C(=O)N[C@H](CCCNC(=N)N)C(=O)N[C@@H](Cc1ccccc1-c1ccccc1)C(=O)NCC(N)=O
2. CC(C)=Cc1ccccc1C[C@H](NC(=O)[C@@H](CCCNC(=N)N)NC(=O)[C@@H](N)Cc1c(C)cc(O)cc1C)C(=O)NCC(N)=O

Output:
[8.46, 9.15]

Input: // pIC50 lookup, key: CC(C)[C@H](NC(=O)[C@H](CCC(=O)O)NC(=O)[C@H](Cc1ccccc1)NC(=O)[C@@H](C)NC(=O)[C@@H](N)Cc1ccc(O)cc1)C(=O)N[C@H](C(=O)NCC(=O)O)C(C)C [DELTORPHIN]
Output: 6.07
